- Test system: 435261-313-R-J1-PDC tumor spheroid viability;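 further: spheroids exposed to compounds for 7 days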
- PROTOCOL TEXT: Anticancer human tumor 435261-313-R-J1-PDC patient-derived colon adenocarcinoma cell line growth inhibition [PI3K]
- CONDITION DESCRIPTION: second compound 0.0316 µM; first compound 0.0316 µM; stronger effect = lower value; spheroids with HUVEC and MSC
Catalogue of compounds with associated viability, T/C
Kindly answer with a numeric value in %, unit omitted.

[
  {
    "COMPOUND": "CC(C)NCC(C(=O)N1CCN(c2ncnc3c2C(C)CC3O)CC1)c1ccc(Cl)cc1 (stereo unspecified) + COc1c(OCCCN2CCOCC2)ccc2c3n(c(=NC(=O)c4cnc(N)nc4)nc12)CCN3",
    "UNIT": "%",
    "NUMERIC READOUT": 29
  },
  {
    "COMPOUND": "Cn1nccc1Nc1nccc(-c2ccn(C(CO)c3ccc(Cl)c(F)c3)c(=O)c2)n1 (stereo unspecified) + COc1c(OCCCN2CCOCC2)ccc2c3n(c(=NC(=O)c4cnc(N)nc4)nc12)CCN3",
    "UNIT": "%",
    "NUMERIC READOUT": 31.7
  },
  {
    "COMPOUND": "Cn1ncc(Cl)c1-c1cc(C(=O)NC(CN)Cc2cccc(F)c2)sc1Cl (stereo unspecified) + Cc1nc(NC(=O)N2CCCC2C(N)=O)sc1-c1ccnc(C(C)(C)C(F)(F)F)c1",
    "UNIT": "%",
    "NUMERIC READOUT": 83.5
  },
  {
    "COMPOUND": "CC1(C)CCC(Nc2ncc(C(F)(F)F)c(-c3c[nH]c4c(P(C)(C)=O)c(C#N)ccc34)n2)CN1 (stereo unspecified) + CC(Nc1ncnc2nc[nH]c12)c1cc2cccc(Cl)c2c(=O)n1-c1ccccc1",
    "UNIT": "%",
    "NUMERIC READOUT": 61.1
  },
  {
    "COMPOUND": "CNC(=O)c1ccc(N2C(=S)N(c3ccc(C#N)c(C(F)(F)F)c3)C(=O)C2(C)C)cc1F + COc1c(OCCCN2CCOCC2)ccc2c3n(c(=NC(=O)c4cnc(N)nc4)nc12)CCN3",
    "UNIT": "%",
    "NUMERIC READOUT": 33.8
  },
  {
    "COMPOUND": "C[C@@H](NC(=O)c1ncnc(N)c1Cl)c1ncc(C(=O)Nc2cc(C(F)(F)F)c(Cl)cn2)s1 + CC(Nc1ncnc2nc[nH]c12)c1cc2cccc(Cl)c2c(=O)n1-c1ccccc1",
    "UNIT": "%",
    "NUMERIC READOUT": 158
  },
  {
    "COMPOUND": "CCCS(=O)(=O)Nc1ccc(F)c(C(=O)c2c[nH]c3ncc(-c4ccc(Cl)cc4)cc23)c1F + COc1c(OCCCN2CCOCC2)ccc2c3n(c(=NC(=O)c4cnc(N)nc4)nc12)CCN3",
    "UNIT": "%",
    "NUMERIC READOUT": 25.7
  },
  {
    "COMPOUND": "CNC(=O)c1ccc(N2C(=S)N(c3ccc(C#N)c(C(F)(F)F)c3)C(=O)C2(C)C)cc1F + CC(Nc1ncnc2nc[nH]c12)c1cc2cccc(Cl)c2c(=O)n1-c1ccccc1",
    "UNIT": "%",
    "NUMERIC READOUT": 106
  },
  {
    "COMPOUND": "CC1(C)CCC(Nc2ncc(C(F)(F)F)c(-c3c[nH]c4c(P(C)(C)=O)c(C#N)ccc34)n2)CN1 (stereo unspecified) + Cc1nc(NC(=O)N2CCCC2C(N)=O)sc1-c1ccnc(C(C)(C)C(F)(F)F)c1",
    "UNIT": "%",
    "NUMERIC READOUT": 47.1
  },
  {
    "COMPOUND": "CNC(=O)c1ccc(N2C(=S)N(c3ccc(C#N)c(C(F)(F)F)c3)C(=O)C2(C)C)cc1F + Cc1nc(NC(=O)N2CCCC2C(N)=O)sc1-c1ccnc(C(C)(C)C(F)(F)F)c1",
    "UNIT": "%",
    "NUMERIC READOUT": 81.8
  }
]

Result for CC(=O)c1c(C)c2cnc(Nc3ccc(N4CCNCC4)cn3)nc2n(C2CCCC2)c1=O + Cc1nc(NC(=O)N2CCCC2C(N)=O)sc1-c1ccnc(C(C)(C)C(F)(F)F)c1 , tested on 435261-313-R-J1-PDC tumor spheroid viability, viability, T/C: 88.5

Reading of viability, T/C for CC1(C)CCC(CN2CCN(c3ccc(C(=O)NS(=O)(=O)c4ccc(NCC5CCOCC5)c([N+](=O)[O-])c4)c(Oc4cnc5[nH]ccc5c4)c3)CC2)=C(c2ccc(Cl)cc2)C1 + Cc1nc(NC(=O)N2CCCC2C(N)=O)sc1-c1ccnc(C(C)(C)C(F)(F)F)c1 with 435261-313-R-J1-PDC tumor spheroid viability: 50.2

Reported 435261-313-R-J1-PDC tumor spheroid viability viability, T/C for item CC1(C)CCC(Nc2ncc(C(F)(F)F)c(-c3c[nH]c4c(P(C)(C)=O)c(C#N)ccc34)n2)CN1 (stereo unspecified) + COc1c(OCCCN2CCOCC2)ccc2c3n(c(=NC(=O)c4cnc(N)nc4)nc12)CCN3 was 31.6
